Recorded Editing Efficiency (Absolute, Average, two targets), one value per entry.
# Test system: endogenous genome targets (ACTB, HSP90AA1)
# method_description: Arrayed SSAP library screening, mKate knock-in assay (editing efficiency)
# Type: cell-based
# study_conditions: percent of mKate knock-in; average of HSP90 and ACTB; 3 days after transfection
Just the number, please.

Dear colleague, I am looking for the recorded Editing Efficiency (Absolute, Average, two targets) of the following molecule: SSAP_12: SEQ ID NO: 181 (protein) STALATLAGKLAERVGMDSVDPQELITTLRQTAFKGDASDAQFIALLIVANQYGLNPWTKEIYAFPDKQNGIVPVVGVDGWSRIINENQQFDGMDFEQDNESCTCRIYRKDRNHPICVTEWMDECRREPFKTREGREITGPWQSHPKRMLRHKAMIQCARLAFGFAGIYDKDEAERIVENTAYTAERQPERDITPVNDETMQEINTLLIALDKTWDDDLLPLCSQIFRRDIRASSELTQAEAVKALGFLKQKASEQKVAA
10.5525

Next up:
Please report the recorded Editing Efficiency (Absolute, Average, two targets) for SSAP_194: SEQ ID NO: 363; Streptomyces sp. CS014 (protein, listed as Streptomyces sp.) TENTVTAAVAVRDTGPAAQIEAYRDEYAALVPSHINADQWVRLAVGAIRGNEDLTNAARTDIGVFLRELKTAARLGLEPGTEQFYLTPRKSKAHRGQKIIKGIVGYQGIIELIYRAGAVSSVIVESVRANDTFRYVIGRDERPVHEIDWFGGDRGDLVGVYAYATMKDGATSKVVVLNHAQVMQIRAKSDSKHSEYSPWNTNPESMWLKSAVRQLMKWVPTSAEYMREQLRAQAEVAAEQPPAADLPPMPSVELNDEDEAVDAELVDEEA .
12.175
